Target: Neutrophil collagenase (Homo sapiens, UniProt P22894)
Sequence (P22894 whole entry): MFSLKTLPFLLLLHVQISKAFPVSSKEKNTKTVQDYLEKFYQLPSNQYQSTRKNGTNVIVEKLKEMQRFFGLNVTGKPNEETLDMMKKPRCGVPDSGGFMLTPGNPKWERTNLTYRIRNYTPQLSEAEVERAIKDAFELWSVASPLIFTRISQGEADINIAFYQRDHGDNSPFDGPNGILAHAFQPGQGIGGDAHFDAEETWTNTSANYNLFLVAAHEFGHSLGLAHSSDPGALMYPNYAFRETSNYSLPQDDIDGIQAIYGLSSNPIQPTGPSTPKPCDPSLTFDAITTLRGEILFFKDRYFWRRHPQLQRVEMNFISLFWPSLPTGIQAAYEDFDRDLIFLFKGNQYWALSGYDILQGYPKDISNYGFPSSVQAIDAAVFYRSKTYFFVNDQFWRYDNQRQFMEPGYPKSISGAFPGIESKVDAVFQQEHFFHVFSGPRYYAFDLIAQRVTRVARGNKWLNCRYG
Assay: Inhibitory activity against matrix metalloprotease-8

chem.smiles: C[C@H](NS(=O)(=O)c1ccccc1)C(=O)NC1=NN=C(c2ccc(Cl)cc2)CS1
Ki, nM: 730
--
chem.smiles: Cc1ccc(C2=NN=C(NC(=O)[C@H](C)NS(=O)(=O)c3ccccc3)SC2)cc1
Ki, nM: 300
--
chem.smiles: C[C@H](NS(=O)(=O)c1ccccc1)C(=O)NC1=NN=C(c2ccc(Cl)s2)CS1
Ki, nM: 180
--
chem.smiles: CC(C)(NS(=O)(=O)c1ccccc1)C(=O)NC1=NN=C(c2ccc(Cl)cc2)CS1
Ki, nM: 480
